The reported measurements were obtained from patent KR20130140557A.

# target.entity: T1, IL-6R-Fc 항원 (IL-6R full domain 단백질) (human, UniProt P08887 20-365)
# T1 construct: domain: IL-6R full domain; Expressed transiently in HEK293E and purified from the supernatant; also called IL-6R 항원; not shown: Fc part from expression vector pYK 604
# T1 sequence (looked up): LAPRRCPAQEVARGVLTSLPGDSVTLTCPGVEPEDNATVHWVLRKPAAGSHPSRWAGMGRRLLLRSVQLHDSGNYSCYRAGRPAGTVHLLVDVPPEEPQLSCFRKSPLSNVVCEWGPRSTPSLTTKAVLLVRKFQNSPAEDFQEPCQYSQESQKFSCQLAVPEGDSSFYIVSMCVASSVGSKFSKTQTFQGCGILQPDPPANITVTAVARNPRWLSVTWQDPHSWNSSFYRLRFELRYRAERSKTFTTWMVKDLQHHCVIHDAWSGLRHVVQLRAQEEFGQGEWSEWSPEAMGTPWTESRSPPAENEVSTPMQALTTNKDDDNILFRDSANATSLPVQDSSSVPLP
# assay.protocol: ELISA titration on coated IL-6R, anti-Fab-HRP
Documented Kd across a set of binders
readout.label: Kd (nM)

1. 항 IL-6R 단클론 항체 D2 (IgG) (antibody, V domains shown, Phage clone converted to whole IgG) VH: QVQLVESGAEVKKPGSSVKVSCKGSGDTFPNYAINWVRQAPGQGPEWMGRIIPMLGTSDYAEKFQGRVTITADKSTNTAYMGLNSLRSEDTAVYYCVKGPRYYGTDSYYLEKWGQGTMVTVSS VL: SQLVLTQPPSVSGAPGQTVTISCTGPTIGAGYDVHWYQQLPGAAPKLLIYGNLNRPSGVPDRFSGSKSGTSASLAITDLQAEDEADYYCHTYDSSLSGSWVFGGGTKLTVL
7.5
2. 항 IL-6R 단클론 항체 B10 (IgG) (antibody, V domains shown, Phage clone converted to whole IgG) VH: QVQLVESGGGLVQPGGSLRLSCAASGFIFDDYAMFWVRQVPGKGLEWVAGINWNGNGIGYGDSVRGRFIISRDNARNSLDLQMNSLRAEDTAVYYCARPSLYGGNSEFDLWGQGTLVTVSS VL: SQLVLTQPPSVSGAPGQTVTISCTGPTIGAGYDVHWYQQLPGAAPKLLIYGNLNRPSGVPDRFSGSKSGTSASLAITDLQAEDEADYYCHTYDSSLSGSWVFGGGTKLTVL
4.3
3. 항 IL-6R 단클론 항체 A7 (IgG) (antibody, V domains shown, Phage clone converted to whole IgG) VH: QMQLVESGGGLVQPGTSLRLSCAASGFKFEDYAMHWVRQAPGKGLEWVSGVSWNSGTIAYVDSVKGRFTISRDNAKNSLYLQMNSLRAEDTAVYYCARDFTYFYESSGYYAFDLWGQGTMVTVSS VL: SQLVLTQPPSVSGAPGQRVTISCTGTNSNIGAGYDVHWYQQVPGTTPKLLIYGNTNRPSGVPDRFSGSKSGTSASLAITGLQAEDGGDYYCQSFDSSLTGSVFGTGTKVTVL
2.3
4. 항 IL-6R 단클론 항체 F2 (IgG) (antibody, V domains shown, Phage clone converted to whole IgG) VH: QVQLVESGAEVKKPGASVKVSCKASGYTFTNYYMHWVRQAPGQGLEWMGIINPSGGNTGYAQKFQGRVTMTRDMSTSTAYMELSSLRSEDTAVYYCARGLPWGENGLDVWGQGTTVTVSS VL: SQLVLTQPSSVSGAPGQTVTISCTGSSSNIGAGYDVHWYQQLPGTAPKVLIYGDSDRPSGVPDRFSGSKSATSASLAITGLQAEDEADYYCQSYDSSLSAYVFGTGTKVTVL
0.35
